molecular target: JAK3 (Homo sapiens (Human)); assay: Z'-LYTE enzymatic activity detection, JAK3; assay type: biochemical; conditions: test compound 30 nM
Sequence (P52333 whole entry): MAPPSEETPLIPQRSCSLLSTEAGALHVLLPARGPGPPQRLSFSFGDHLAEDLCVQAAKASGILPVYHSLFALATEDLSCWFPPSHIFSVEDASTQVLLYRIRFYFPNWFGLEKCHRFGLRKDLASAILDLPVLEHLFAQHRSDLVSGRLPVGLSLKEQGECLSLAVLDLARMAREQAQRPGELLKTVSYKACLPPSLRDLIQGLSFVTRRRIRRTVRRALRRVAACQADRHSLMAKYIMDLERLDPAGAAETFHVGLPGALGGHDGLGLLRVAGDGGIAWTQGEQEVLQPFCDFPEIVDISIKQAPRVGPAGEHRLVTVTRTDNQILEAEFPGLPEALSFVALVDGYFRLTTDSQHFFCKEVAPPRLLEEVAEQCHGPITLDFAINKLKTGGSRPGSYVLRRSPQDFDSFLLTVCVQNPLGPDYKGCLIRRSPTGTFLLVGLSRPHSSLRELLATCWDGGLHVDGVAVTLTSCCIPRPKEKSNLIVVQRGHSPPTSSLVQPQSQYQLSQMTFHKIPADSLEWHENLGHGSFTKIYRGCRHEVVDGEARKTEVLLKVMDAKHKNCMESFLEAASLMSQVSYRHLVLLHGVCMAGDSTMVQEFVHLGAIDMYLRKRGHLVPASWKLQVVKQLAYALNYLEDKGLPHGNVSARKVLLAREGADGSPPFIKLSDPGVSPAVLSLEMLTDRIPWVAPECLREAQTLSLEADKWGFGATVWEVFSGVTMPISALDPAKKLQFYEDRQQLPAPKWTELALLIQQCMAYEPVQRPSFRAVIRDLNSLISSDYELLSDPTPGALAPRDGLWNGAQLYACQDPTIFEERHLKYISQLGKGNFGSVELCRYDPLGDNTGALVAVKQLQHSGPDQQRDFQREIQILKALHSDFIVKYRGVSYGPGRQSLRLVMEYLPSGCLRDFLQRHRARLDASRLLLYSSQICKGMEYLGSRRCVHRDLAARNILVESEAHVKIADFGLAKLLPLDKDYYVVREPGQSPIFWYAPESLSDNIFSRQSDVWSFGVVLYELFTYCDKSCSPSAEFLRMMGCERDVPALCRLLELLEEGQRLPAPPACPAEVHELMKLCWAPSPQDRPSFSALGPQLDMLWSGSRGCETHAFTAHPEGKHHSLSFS
reported-endpoint: JAK3 RV (ratio between the inhibitory rate of the test compound and that of Xeljanz)

In the examples that follow, each entry is paired with its recorded JAK3 RV (ratio between the inhibitory rate of the test compound and that of Xeljanz).
Query: JAK3 RV (ratio between the inhibitory rate of the test compound and that of Xeljanz); subject: C=CC(=O)N(C)c1cc(Nc2ncc(Cl)c(NCCCNC(=O)c3cc(F)c(F)c(F)c3F)n2)ccc1F
1.01

Also check C=CC(=O)N(C)c1cc(Nc2ncc(C)c(NCCCNC(=O)c3ccc(C(F)(F)F)cc3)n2)ccc1F
0.82

Next compound up: C=CC(=O)N(C)c1cc(Nc2ncc(Cl)c(NCCCCCCNC(=O)c3ccc(C#N)cc3)n2)ccc1F
0.95

And for C=CC(=O)Nc1cc(Nc2ncc(Cl)c(NCCCNC(=O)c3ccc(C(F)(F)F)cc3)n2)ccc1F ?
0.96

Same question, C=CC(=O)N(C)c1cc(Nc2ncc(Cl)c(NCCCNC(=O)c3ccc(C(F)(F)F)cc3)n2)ccc1F this time
0.82

[P] C=CC(=O)N(C)c1cc(Nc2ncc(Cl)c(NCCCNC(=O)c3cccc(C#N)c3)n2)ccc1F
[Q] C=CC(=O)N(C)c1cc(Nc2ncc(Cl)c(OCCCNC(=O)c3ccc(C#N)cc3)n2)ccc1F
// select label with min value of measured JAK3 RV (ratio between the inhibitory rate of the test compound and that of Xeljanz) from [ P , Q ] Please indicate the selected item by its label.
Q

====

Each entry below carries its recorded activity at 0.3 µM.
tested on: CTLL-2 cells; test: Cell growth activity assay (MTS), CTLL-2 cell model; format: cell-based, mouse; conditions: Mus musculus, CTLL-2, 300 nM, 24 h, read-out: CTLL-2 % growth rate @300 nM
Field: numeric (%). Do not append units.

Report activity at 0.3 µM for C=CC(=O)N(C)c1cc(Nc2ncc(C)c(NCCCNC(=O)c3ccc(C(F)(F)F)cc3)n2)ccc1F [Example 21] please.
57

Lookup C=CC(=O)N(C)c1cc(Nc2ncc(Cl)c(NCCCNC(=O)c3ccc(C(C)=O)cc3)n2)ccc1F [Example 111]
3

Then C=CC(=O)N(C)c1cc(Nc2ncc(Cl)c(NCCCNC(=O)c3ccc(CC)cc3)n2)ccc1F [Example 79] ?
3

Thanks! And C=CC(=O)N(C)c1cc(Nc2ncc(Cl)c(NCCCNC(=O)c3ccc(C#N)cc3)n2)ccc1F [Example 7] ?
10

Also need C=CC(=O)N(C)c1cc(Nc2ncc(Cl)c(NCCCNC(=O)C3CCN(C)CC3)n2)ccc1F [Example 27] , thanks.
85

---
So what's the measured activity at 0.3 µM for this one? C=CC(=O)Nc1cc(Nc2ncc(Cl)c(NCCCNC(=O)c3ccc(F)cc3)n2)ccc1F [Example 17]
20

Then this compound: C=CC(=O)N(C)c1cc(Nc2ncc(Cl)c(NCCCNC(=O)c3ccncc3)n2)ccc1F [Example 75]
49

Also check C=CC(=O)N(C)c1cc(Nc2ncc(Cl)c(OCCCNC(=O)c3ccc(C#N)cc3)n2)ccc1F [Example 71]
70

====

Biological target: JAK1 (Homo sapiens (Human))
Sequence (P23458 whole entry): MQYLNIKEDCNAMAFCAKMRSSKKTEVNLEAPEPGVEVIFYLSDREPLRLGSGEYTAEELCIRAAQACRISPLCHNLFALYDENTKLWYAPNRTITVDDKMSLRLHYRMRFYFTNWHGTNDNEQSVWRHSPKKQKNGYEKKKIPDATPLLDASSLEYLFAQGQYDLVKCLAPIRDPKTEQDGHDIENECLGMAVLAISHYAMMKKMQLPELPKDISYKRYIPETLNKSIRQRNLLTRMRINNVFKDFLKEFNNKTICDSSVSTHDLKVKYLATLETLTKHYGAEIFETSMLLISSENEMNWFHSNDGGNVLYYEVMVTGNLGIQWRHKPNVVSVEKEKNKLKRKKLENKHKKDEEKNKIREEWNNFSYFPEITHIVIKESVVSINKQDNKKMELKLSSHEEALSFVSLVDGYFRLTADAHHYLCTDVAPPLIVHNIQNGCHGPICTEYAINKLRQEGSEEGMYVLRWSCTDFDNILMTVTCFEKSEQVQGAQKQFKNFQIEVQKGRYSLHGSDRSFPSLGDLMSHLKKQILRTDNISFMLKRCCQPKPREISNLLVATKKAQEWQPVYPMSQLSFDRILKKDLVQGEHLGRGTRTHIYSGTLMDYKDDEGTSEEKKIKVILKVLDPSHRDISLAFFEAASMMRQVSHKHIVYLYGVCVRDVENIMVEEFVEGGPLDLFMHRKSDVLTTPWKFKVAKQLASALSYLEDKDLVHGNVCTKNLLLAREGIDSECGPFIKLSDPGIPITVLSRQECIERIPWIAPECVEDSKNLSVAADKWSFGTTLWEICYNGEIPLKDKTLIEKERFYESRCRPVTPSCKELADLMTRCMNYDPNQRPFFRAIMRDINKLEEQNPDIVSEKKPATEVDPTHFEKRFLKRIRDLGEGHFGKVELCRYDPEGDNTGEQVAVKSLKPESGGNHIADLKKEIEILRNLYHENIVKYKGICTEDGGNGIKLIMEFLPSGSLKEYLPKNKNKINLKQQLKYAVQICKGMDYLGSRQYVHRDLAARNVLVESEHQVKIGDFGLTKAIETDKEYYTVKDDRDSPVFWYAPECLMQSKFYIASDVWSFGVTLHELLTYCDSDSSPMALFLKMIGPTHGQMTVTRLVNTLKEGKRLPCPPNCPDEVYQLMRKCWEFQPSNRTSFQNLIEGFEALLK
Assay: Z'-LYTE enzymatic activity detection, JAK1
Format: biochemical
Settings: test compound 300 nM; read-out: JAK1 % inhibitory rate @300 nM
Description: The basic principle of in vitro enzymatic activity assay is based on the difference between the intensities of fluorescence signals generated at different wavelengths (445 nm and 520 nm) from the phosphorylated substrate and non-phosphorylated substrate, in which the specific fluorescence-labeled substrate is phosphorylated by the kinase. […]
reported-endpoint: inhibition at 0.3 µM (%)

Lookup: inhibition at 0.3 µM / JAK1 (Homo sapiens (Human)) / C=CC(=O)N(C)c1cc(Nc2ncc(Cl)c(NCCCNC(=O)c3ccc(F)cc3)n2)ccc1F [Example 23]
19

Try this compound next: C=CC(=O)N(C)c1cc(Nc2ncc(Cl)c(NCCCNC(=O)c3cccc(C(F)(F)F)c3)n2)ccc1F [Example 91]
20

Follow-up entry: C=CC(=O)N(C)c1cc(Nc2ncc(Cl)c(NCCCNC(=O)c3ccc(CC)cc3)n2)ccc1F [Example 79]
19

Data provenance: patent US10011571B2
